Assay: Quantitative High-Throughput drug screen in 47 multiple myeloma cell lines against the NCATS MIPE library collection: KMS20_JCRB cell viability assay (AID 1918973); also: nearly all actives have a fitted effect of over 45% in size
Conditions: CellTiter-Glo ATP, 48 h; series mostly up to 45.8 µM
Results filed as inconclusive are left out. Active and inactive are the calls of the source. Calls follow the shape of the dose curve; as a rule, active = well fitted cell-killing curve with a large enough effect; inconclusive = small, poorly fitted or top-dose-only effect, or effect the other way; inactive = no such curve, though single readings can be large or run the other way.
Choose the fitting class; nothing outside yes (active), no (inactive) is accepted.

# example entries with known answers
[
  {
    "Compound": "Cc1cnc(NC(=O)Nc2cc(Br)c(C)cc2OC[C@@H]2CNCCO2)cn1",
    "Answer Label": "yes"
  },
  {
    "Compound": "C[C@H](NC(=O)C(C#N)=Cc1cccc(Br)n1)c1ccccc1",
    "Answer Label": "yes"
  },
  {
    "Compound": "NC(=O)c1ncn([C@@H]2O[C@H](CO)[C@@H](O)[C@@H]2O)c1O",
    "Answer Label": "no"
  },
  {
    "Compound": "N[C@H]1CN(c2c(F)cc3c(=O)c(C(=O)O)cn(C4C[C@@H]4F)c3c2Cl)CC12CC2 (stereo not given in full)",
    "Answer Label": "no"
  }
]

Call for entry CC[C@H](CC[C@@H](C)[C@H]1CC[C@H]2[C@@H]3CC=C4C[C@@H](O)CC[C@]4(C)[C@@H]3CC[C@]12C)C(C)C :
no
